Where do these numbers come from? They come from patent US8003649B2.

# TEST_SYSTEM: Androgen Receptor (AR) (Homo sapiens, UniProt P10275, T878A)
# Construct: cell based immuno-fluorescence assay using the LNCaP prostate epithelial cell line; endogenous in cells; host or cells: LNCaP clone FGC (ATCC CRL-1740)
# Sequence (P10275 whole entry T878A): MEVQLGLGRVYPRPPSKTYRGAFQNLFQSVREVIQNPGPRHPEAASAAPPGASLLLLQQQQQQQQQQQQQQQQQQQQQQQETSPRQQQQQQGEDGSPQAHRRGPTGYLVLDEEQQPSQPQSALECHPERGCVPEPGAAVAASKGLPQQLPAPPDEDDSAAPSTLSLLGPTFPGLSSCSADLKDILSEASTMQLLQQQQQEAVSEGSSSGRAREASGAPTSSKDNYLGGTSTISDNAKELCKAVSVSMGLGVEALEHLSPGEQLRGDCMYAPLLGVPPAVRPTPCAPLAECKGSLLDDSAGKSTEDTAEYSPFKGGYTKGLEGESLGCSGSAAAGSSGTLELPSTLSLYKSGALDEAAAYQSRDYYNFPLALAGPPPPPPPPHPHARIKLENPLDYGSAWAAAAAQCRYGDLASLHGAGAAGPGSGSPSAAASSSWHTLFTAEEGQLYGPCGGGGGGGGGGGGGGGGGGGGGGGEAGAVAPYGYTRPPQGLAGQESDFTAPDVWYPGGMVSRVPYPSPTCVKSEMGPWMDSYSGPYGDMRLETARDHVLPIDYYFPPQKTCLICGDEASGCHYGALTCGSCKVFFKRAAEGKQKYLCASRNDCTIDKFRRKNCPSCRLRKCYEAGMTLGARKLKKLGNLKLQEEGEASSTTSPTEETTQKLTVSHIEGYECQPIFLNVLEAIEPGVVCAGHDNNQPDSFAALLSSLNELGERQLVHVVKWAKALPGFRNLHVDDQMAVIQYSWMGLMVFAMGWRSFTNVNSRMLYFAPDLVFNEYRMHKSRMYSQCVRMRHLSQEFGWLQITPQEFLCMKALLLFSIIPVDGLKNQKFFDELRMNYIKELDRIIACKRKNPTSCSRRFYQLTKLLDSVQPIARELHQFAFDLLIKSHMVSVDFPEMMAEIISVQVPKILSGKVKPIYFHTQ
# METHOD: LNCaP Androgen Receptor Down-regulation Cell Assay (immunofluorescence end point)
# Format: cell-based
# SETTINGS: LNCaP prostate carcinoma cells, compound incubation 20-22 hours, 50% reduction of the AR signal; read-out: Androgen Receptor Down-regulation Assay (a) IC50/μM
Recorded DC50 for the following compounds
PARAMETER: DC50 (µM)

| SMILES_REPR | TEST_SYSTEM | QUALIFYING_SIGN | RESULT_VALUE |
| --- | --- | --- | --- |
| O=C(c1ccc2[nH]cc(C3CCN(c4ccc5nnc(C(F)(F)F)n5n4)CC3)c2c1)N1CCOCC1 | Androgen Receptor (AR) (Homo sapiens, UniProt P10275, T878A) | = | 2.2 |
| FC(F)(F)c1nnc2ccc(N3CCN(Cc4ccc(Cl)cc4)CC3)cn12 | Androgen Receptor (AR) (Homo sapiens, UniProt P10275, T878A) | = | 0.79 |
| CC(=O)c1ccc(N2CCN(c3ccc4nnc(C(F)(F)F)n4n3)CC2)cc1 | Androgen Receptor (AR) (Homo sapiens, UniProt P10275, T878A) | = | 2.5 |
| Fc1ccc(CN2CCN(c3ccc4nnc(C(F)(F)F)n4n3)CC2)c(F)c1F | Androgen Receptor (AR) (Homo sapiens, UniProt P10275, T878A) | > | 17 |
| Fc1ccc(CN[C@H]2[C@@H]3CN(c4ccc5nnc(C(F)(F)F)n5n4)C[C@@H]32)cc1 | Androgen Receptor (AR) (Homo sapiens, UniProt P10275, T878A) | = | 4.9 |
| FC(F)(F)c1nnc2ccc(N3CCN(Cc4cccs4)CC3)nn12 | Androgen Receptor (AR) (Homo sapiens, UniProt P10275, T878A) | = | 0.64 |
| O=[N+]([O-])c1ccc(CN2CCN(c3ccc4nnc(C(F)(F)F)n4n3)CC2)cc1 | Androgen Receptor (AR) (Homo sapiens, UniProt P10275, T878A) | = | 0.77 |
| FC(F)(F)c1nnc2ccc(N3CCCN(Cc4cccc(Cl)c4)CC3)nn12 | Androgen Receptor (AR) (Homo sapiens, UniProt P10275, T878A) | = | 0.68 |
